Tested on: CP247
Assay Name: qHTS profiling for inhibitors of Plasmodium falciparum proliferation (AID 504749); also: nearly all actives have a fitted effect of over 60% in size
Assay Conditions: P. falciparum in erythrocytes, SYBR Green DNA, 72 h; series mostly up to 28.7 µM
Records with an inconclusive call do not appear. Activity calls are given as the source filed them. Calls follow the shape of the dose curve; as a rule, active = well fitted inhibition curve with a large enough effect; inconclusive = small, poorly fitted or top-dose-only effect; inactive = flat fitted curve, though single readings scatter.
Outcomes: class 1 = active, class 0 = inactive

| Molecule | Classification |
| --- | --- |
| C[C@@]12C(=O)OC(=O)[C@]1(C)[C@H]1CC[C@@H]2O1 | class 1 |
| Oc1ccc(/C=C\c2cc(O)cc(O)c2)cc1 | class 0 |
| C=C1/C(=C\C=C2/CCC[C@]3(C)[C@@H]([C@H](C)CCCC(C)(C)O)CC[C@@H]23)C[C@@H](O)C[C@@H]1O | class 0 |
| CC(C)C[C@H]1C(=O)N2CCCC2[C@]2(O)O[C@](NC(=O)[C@@H]3C=C4c5cccc6[nH]c(Br)c(c56)C[C@H]4N(C)C3)(C(C)C)C(=O)N12 (stereo partly drawn) | class 1 |
| C=C1CCC2[C@](C)(CO)C(O)CC[C@]2(C)C1C/C=C1/C(=O)OCC1O (stereo partly drawn) | class 1 |
| CN=C(N)NCCCC(N)C(=O)O (stereo not drawn) | class 0 |
| CO[C@H]1/C=C/O[C@@]2(C)Oc3c(C)c(O)c4c(O)c(c(/C=N\N5CCN(C6CCCC6)CC5)c(O)c4c3C2=O)NC(=O)/C(C)=C\C=C\[C@H](C)[C@H](O)[C@@H](C)[C@@H](O)[C@@H](C)[C@H](OC(C)=O)[C@@H]1C | class 1 |
| C[C@@H]1[C@H](O)[C@@H](C)/C=C/C=C/C=C/C=C/C=C/C=C/C=C/[C@H](O[C@@H]2O[C@H](C)[C@@H](O)[C@H](N)[C@@H]2O)C[C@@H]2O[C@](O)(C[C@@H](O)C[C@@H](O)[C@H](O)CC[C@@H](O)C[C@@H](O)CC(=O)O[C@H]1C)C[C@H](O)[C@H]2C(=O)O | class 0 |
